# assay-comment: budding yeast growth changes without added modifier – OD600, strain BY4716, 24 h, basal condition, primary screen (AID 1173)
# run-parameters: S. cerevisiae BY4716 growth, OD600, 24 h; higher = more signal, called active from +8 up or from −8 down
value-type: z-score
# output: bare number, no unit

The cases that follow already have their z-score on record.
[
  {
    "molecule": "CS(=O)(=O)CCOC(=O)C1=CC(CCCO)=CC(c2ccc(CN3CCCC3)cc2)N(Cc2sc3ccccc3c2Cl)C=C1C(=O)OCCS(C)(=O)=O (configuration not stated)",
    "z-score": -2.76
  },
  {
    "molecule": "CC(C)NC(=O)[C@@]1(C)c2ccccc2C(=O)N(Cc2ccc(OC(F)(F)F)cc2)[C@H]1c1ccc(CO)cc1",
    "z-score": 0.154
  },
  {
    "molecule": "CC1CC/C=C\\[C@H]2OC34C=CCN(c5ccc(Cl)cc5)C(=O)[C@H]3N(C(C)CO)C(=O)[C@]4(C)C2C(=O)O1 (some centres not stated)",
    "z-score": -0.876
  }
]

Ask: // lookup z-score for C=C(/C(=C/C[C@H](OC(=O)c1ccncc1)c1ccc(CO)o1)c1cnc2ccccc2c1)C(C)C
Reply: -1.2

Ask: // next record COc1ccc([Si](C)(C)[C@@H]2[C@@H](CCO)O[C@]3(C(=O)N(Cc4ccccc4)c4ccc(N5CCOC5=O)cc43)[C@H]2C)cc1
Reply: 1.81

Ask: // next record CCCNC(=O)[C@@]1(Sc2ccc(C)cc2)CC(=O)N(C2Cc3ccccc3C2)[C@@H]1c1ccc(CO)cc1I
Reply: -2.31

Ask: // next record CCOC(=O)C[C@H]1[C@H](OC(=O)c2cc3ccccc3oc2=O)[C@@H](NC(=O)c2ccccc2)c2cc(OCCCO)ccc2N1C(=O)c1ccccc1
Reply: -1.89

###

# assay-comment: blockers of DNA damage checkpoint Chk1 activation – imaging, HeLa, hydroxyurea, phospho-Chk1 nuclear intensity, primary screen (AID 1187); note: test concentration not given here
# run-parameters: hydroxyurea-induced phospho-Chk1 immunofluorescence imaging, higher = more signal
Decision: z-score compared against -0.3; not below it gives condition met, below it gives condition not met.

Solved cases (2 shown):
[
  {
    "molecule": "CCOC(=O)C[C@H]1[C@H](OC(=O)c2ccc(C(=O)c3ccccc3)cc2)[C@@H](NC(=O)CC(C)C)c2cc(OCCCO)ccc2N1C(=O)c1ccccc1",
    "category-label": "condition met"
  },
  {
    "molecule": "CC[C@@H]1C=C(C(=O)O)[C@H](c2ccccc2)N1S(=O)(=O)c1ccc(C)cc1",
    "category-label": "condition met"
  }
]

Ask: # bool: z-score of OCCCC1=CC(c2ccc(CN3CCCC3)cc2)N(Cc2cc3c(cc2Br)OCO3)CC1 (stereo not drawn) >= -0.3
Reply: condition met

###

Entries and their z-score
# assay-comment: viability profiling in MM1S myeloma cells – cell-based, resazurin fluorescence, basal, 24 h, PK04 Diversity Set, profiling panel (AID 1174);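 note: MM1S multiple myeloma cell line; test concentration not given here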
# run-parameters: higher = more signal, called active from +8 up or from −8 down
# output: bare number, no unit

The cases that follow already have their z-score on record.
[
  {
    "compound": "CCCNC(=O)[C@@]1(C)c2ccccc2C(=O)N(c2ccc(C)cn2)[C@H]1c1ccc(CO)cc1",
    "value-type": "z-score",
    "assay-value": 0.268
  },
  {
    "compound": "CCCCNC(=O)c1ccc(C#CC(C)(C)C)c(OC(C)=O)c1",
    "value-type": "z-score",
    "assay-value": 0.611
  },
  {
    "compound": "C=C(COC)C(=O)CC[C@@H](OC(C)=O)c1cccc(OCCO)c1",
    "value-type": "z-score",
    "assay-value": -0.0743
  },
  {
    "compound": "COC(=O)[C@@H]1N=C(c2ccc(OCCCO)cc2)O[C@@H]1c1ccccc1",
    "value-type": "z-score",
    "assay-value": 1.09
  }
]

Ask: // lookup z-score for COC(=O)C1(CC(C)C)C=C2C(=C(c3ccccc3)C(=O)C2C)CN1 (stereo not given)
Reply: -2.14
